# % of inhibition (200 μM) per record follows
test system: α‐glucosidase; assay: α-Glucosidase inhibitory assay (p-nitrophenyl-α-D-glucopyranoside, microplate reader); format: biochemical; settings: 200 μM; mean ± SEM, three independent experiments in triplicate
# value in %; strip the unit string

Check out these entries, answers already filled in.
{"columns": ["molecule", "testTarget", "valueUnit", "readoutNumber"],
 "data": [
  ["CC1(C)CC[C@]2(C(=O)O)CC[C@]3(C)C(=CC[C@@H]4[C@@]5(C)CC[C@H](O)C(C)(C)[C@@H]5CC[C@]43C)[C@@H]2C1 [Compound 10, oleanolic acid]", "α‐glucosidase", "%", 67.5],
  ["CC1CC=C(C(C)(C)OOC23CC(C)CC=C2C(C)(C)OO3)C(=O)C1 (stereo not drawn) [Compound 1, ziziphora diperoxy dimer]", "α‐glucosidase", "%", 6.0]
]}

Pending molecule:
Asked: # % of inhibition (200 μM) lookup, item C=C(C)[C@@H]1CC[C@]2(CO)CC[C@]3(C)[C@H](CC[C@@H]4[C@@]5(C)CC[C@H](O)C(C)(C)[C@@H]5CC[C@]43C)[C@@H]12 [Compound 3, betulin]
Given back: 24.0
